# target_or_system: T1, monomeric human sBCMA (Homo sapiens, UniProt Q02223)
# T1 construct: is comprised of the entire extracellular domain of the molecule; purchased GenScript
# T1 sequence (Q02223 1-54 limits assumed): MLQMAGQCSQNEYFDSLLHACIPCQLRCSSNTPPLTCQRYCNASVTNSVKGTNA
# assay_text: Kinetics/affinity measurement by SPR (BioRad ProteOn XPR36), antibody captured by anti-Fc, sBCMA flowed over
# Type: binding
# run_parameters: sBCMA 100-6.25 nM
measure: Kon
Answers are plain numbers.

molecule: L15: lead optimized clone of 15B2GL; VH SEQ ID NO: 13, VL SEQ ID NO: 14 (antibody, V domains shown) VH: EVQLVESGGGLVKPGGSLRLSCAASGFTFSSYSMNWVRQAPGKGLEWVSSISGQSNYIYYADSVKGRFTISRDNAKNSLYLQMNSLRAEDTAVYYCARGGNYFVEYFQYWGQGTLVTVSS VL: EIVLTQSPGTLSLSPGERATLSCRASQYISSNNLAWYQQKPGQAPRLLIYGASNRATGIPDRFSGSGSGTDFTLTISRLEPEDFAVYYCQQYADSPITFGQGTKLEIK
Kon: 8.54E+05

molecule: P10: lead optimized clone of 15B2GL; VH SEQ ID NO: 19, VL SEQ ID NO: 20 (antibody, V domains shown) VH: EVQLVESGGGLVKPGGSLRLSCAASGFTFRSYSMNWVRQAPGKGLEWVSSISGQSNYIYYADSVKGRFTISRDNAKNSLYLQMNSLRAEDTAVYYCARGGNYYVEYFQYWGQGTLVTVSS VL: EIVLTQSPGTLSLSPGERATLSCRASQYISSNYLAWYQQKPGQAPRLLIYGASNRATGIPDRFSGSGSGTDFTLTISRLEPEDFAVYYCQQYTDSPITFGQGTKLEIK
Kon: 7.01E+05

Lab note: measured Kon of 15B2GL: germline form of anti-BCMA monoclonal antibody 15B2; VH SEQ ID NO: 7, VL SEQ ID NO: 8 (antibody, V domains shown) VH: EVQLVESGGGLVKPGGSLRLSCAASGFTFRSYSMNWVRQAPGKGLEWVSSISGSSNYIYYADSVKGRFTISRDNAKNSLYLQMNSLRAEDTAVYYCARGGNYYVEYFQYWGQGTLVTVSS VL: EIVLTQSPGTLSLSPGERATLSCRASQYISSNYLAWYQQKPGQAPRLLIYGASNRATGIPDRFSGSGSGTDFTLTISRLEPEDFAVYYCQQYGSSPITFGQGTKLEIK was 3.73E+05
